- method-description: reversal of MRP1-mediated doxorubicin resistance, pilot screen, H69AR cells, doxorubicin co-treatment (AID 601)
- reported-conditions: H69AR cells, CellTiter-Glo, 72 h; compound alone cytotoxicity; at 10 µM
Assign labels as follows, please: Satisfied for viability below 90%; Not satisfied for viability equal to or exceeding 90%.

compound | cat
Cc1ccc(-c2nnc3ccc(SCC(=O)NCc4ccco4)nn23)cc1 | Not satisfied
Cc1ccccc1S(=O)(=O)Cc1ccc(C(=O)NCc2cccnc2)o1 | Not satisfied
Cn1nnnc1SCC(=O)N1CCN(c2cccc(Cl)c2)CC1 | Satisfied
O=C(O)c1ccc(COc2c(F)c(F)cc(F)c2F)cc1 | Not satisfied
CCn1nc(C(=O)OCC(=O)c2cc(C)n(Cc3cccs3)c2C)c2ccccc2c1=O | Satisfied
CCc1nnc(NC(=O)CSc2nnc3scc(-c4ccc(C)cc4)n23)s1 | Not satisfied
O=C(c1ccc(Cl)c(F)c1F)N1CCCC1 | Not satisfied
CC1=Nn2c(nnc2-c2ccccn2)SC1 | Not satisfied
Cc1ccc(C)c(N2CCN(C(=O)C3CCN(S(=O)(=O)c4c(C)noc4C)CC3)CC2)c1 | Satisfied
Cc1cc(NC(=O)CCCN2C(=O)c3cccnc3C2=O)no1 | Not satisfied
CCOC(=O)Cc1nn2c(=O)cc(C)nc2s1 | Not satisfied
CCOCCCNC(=O)CS(=O)(=O)Cc1nc(-c2cccc(OC)c2)oc1C | Satisfied
COC(=O)c1cc(O)c(OCc2ccccc2)c(O)c1 | Not satisfied
CC1(C)NC(=O)N(CNc2cc(Cl)ccc2Cl)C1=O | Not satisfied
O=C(Cn1c(SCC(=O)N2CCCc3ccccc32)nc2ccccc21)N1CCCC1 | Not satisfied
CCN(CC)S(=O)(=O)c1ccc(NC2c3ccccc3C(=O)N2CCN2CCOCC2)cc1 (stereo not given) | Satisfied
Cc1ccc(C(=O)Nc2nc3c(s2)CCCC3)o1 | Satisfied
Cc1c(C#N)sc2nc(-c3ccccc3)nc(N3CCCC3)c12 | Satisfied
CCCCCOC(=O)CSc1nnc(-c2cc(OC)c(OC)c(OC)c2)o1 | Not satisfied
COc1ccccc1Nc1ccc(C(=O)NC2CCCCC2)cn1 | Not satisfied
Cc1ccccc1NC(=O)CSc1nc(N)c(C#N)c(-c2cccs2)c1C#N | Satisfied
CC(C)NC(=O)CSc1nnc(-c2ccc(C(C)(C)C)cc2)n1C | Not satisfied
O=c1oc2ccccc2c2nccnc12 | Not satisfied
O=C(NCCCN1CCOCC1)C1CC(=O)N(CCc2ccccc2)C1 (stereo not given) | Not satisfied
COc1ccccc1NC(=O)N1CCCC1C(=O)NC1CCCCC1 (stereo not given) | Satisfied
Cc1nc2nc(SCC(=O)NCc3ccco3)nn2c(C)c1Cc1ccccc1 | Satisfied
Cn1c2ccccc2c2c(C(=O)NCCCN3CCCC3=O)cn(C3CCCCC3)c(=O)c21 | Satisfied
COC(=O)C(C)Oc1ccc2c3c(c(=O)oc2c1)CCCCC3 (stereo not given) | Not satisfied
CC1(C)CC(=O)C(C=Nc2ccc3c(c2)OCO3)=C(O)C1 | Satisfied
O=S(=O)(Nc1ncccn1)c1ccc(Nc2ncnc3ccccc23)cc1 | Not satisfied
CCOC(=O)CC1=C(C(=O)OCC)C(c2ccc(C)o2)C(C#N)=C(N)O1 (stereo not given) | Satisfied
Cc1cc(NC(=O)CSc2ccc3nnc(-c4cccc(F)c4)n3n2)no1 | Not satisfied
CCNc1nc(N2CCCCC2)nc(-n2nnc(C(=O)OCC)c2C)n1 | Not satisfied
COc1cccc(OC)c1C(=O)Nc1cccc(C(C)=O)c1 | Not satisfied
Cn1c(CCCNC(=O)c2ccccc2)nc2ccccc21 | Not satisfied
